Each entry below carries its recorded Emax.
MEASURED ON: Protein cereblon/Estrogen receptor (Homo sapiens, UniProt P03372+Q96SW2)
Sequence (P03372 whole entry, looked up): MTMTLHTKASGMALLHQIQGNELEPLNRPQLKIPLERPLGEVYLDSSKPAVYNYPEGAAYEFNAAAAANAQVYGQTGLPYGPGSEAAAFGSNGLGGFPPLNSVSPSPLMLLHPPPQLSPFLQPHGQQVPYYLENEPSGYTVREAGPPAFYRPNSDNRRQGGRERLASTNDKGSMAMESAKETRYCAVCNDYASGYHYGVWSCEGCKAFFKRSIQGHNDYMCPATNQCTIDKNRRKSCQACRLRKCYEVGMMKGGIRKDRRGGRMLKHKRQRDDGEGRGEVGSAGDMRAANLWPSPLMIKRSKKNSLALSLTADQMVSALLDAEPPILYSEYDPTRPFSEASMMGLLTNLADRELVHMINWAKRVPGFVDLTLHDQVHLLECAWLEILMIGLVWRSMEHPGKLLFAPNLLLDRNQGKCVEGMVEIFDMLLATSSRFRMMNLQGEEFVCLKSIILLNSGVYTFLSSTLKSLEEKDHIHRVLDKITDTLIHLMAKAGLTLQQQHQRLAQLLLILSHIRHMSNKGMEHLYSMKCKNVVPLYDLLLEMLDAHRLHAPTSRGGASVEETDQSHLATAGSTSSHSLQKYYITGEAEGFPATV
Sequence (Q96SW2 whole entry, looked up): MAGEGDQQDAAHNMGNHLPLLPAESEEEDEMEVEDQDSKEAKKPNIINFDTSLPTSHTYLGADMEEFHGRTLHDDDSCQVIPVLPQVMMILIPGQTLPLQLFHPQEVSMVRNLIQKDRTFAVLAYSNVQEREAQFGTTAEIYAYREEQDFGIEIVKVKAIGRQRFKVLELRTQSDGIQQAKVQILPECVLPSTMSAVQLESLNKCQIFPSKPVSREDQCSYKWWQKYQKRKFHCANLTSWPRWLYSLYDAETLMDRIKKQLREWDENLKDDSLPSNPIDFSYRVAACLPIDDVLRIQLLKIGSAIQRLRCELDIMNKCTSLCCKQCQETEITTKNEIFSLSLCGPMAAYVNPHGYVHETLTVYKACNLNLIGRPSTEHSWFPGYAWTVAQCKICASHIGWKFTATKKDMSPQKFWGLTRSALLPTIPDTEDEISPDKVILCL
PROCEDURE TEXT: Protac activity at cereblon/ERalpha in human MCF7 cells assessed as induction of ERalpha protein degradation by Western blot analysis relative to control
Type: cell-based

MOLECULE	Emax
O=C1CCC(N2Cc3cc(N4CCN(CCC5(O)CC(Oc6ccc([C@@H]7c8ccc(O)cc8CC[C@@H]7c7ccccc7)cc6)C5)CC4)cc(OC(F)F)c3C2=O)C(=O)N1 (stereo not given in full)	50 to 75%
COc1cc(N2CCN(CCCCCOc3ccc([C@@H]4c5ccc(O)cc5CC[C@@H]4c4ccccc4)cc3)CC2)cc2c1C(=O)N(C1CCC(=O)NC1=O)C2 (stereo not given in full)	> 75%
COc1cc(N2CCN(CC(=O)C3CC(Oc4ccc([C@@H]5c6ccc(O)cc6CC[C@@H]5c5ccccc5)cc4)C3)CC2)cc2c1C(=O)N(C1CCC(=O)NC1=O)C2 (stereo not given in full)	> 75%
COc1cc(N2CCN(CCCCCOc3ccc([C@@H]4c5ccc(O)cc5CC[C@@H]4c4ccccc4)cc3)CC2)cc2c1C(=O)N([C@H]1CCC(=O)NC1=O)C2	> 75%
COc1cc(N2CCN(CCCCCOc3ccc([C@@H]4c5ccc(O)cc5CC[C@@H]4c4ccccc4)cc3)CC2)cc2c1C(=O)N([C@@H]1CCC(=O)NC1=O)C2	> 75%
